Entries and their koff
Biological target: T1, full-length Sudan GP (GPFL) (Sudan virus (SUDV), UniProt Q7T9D9 33-650)
T1 construct: also called Sudan GPFL; GP(S)FL
T1 sequence: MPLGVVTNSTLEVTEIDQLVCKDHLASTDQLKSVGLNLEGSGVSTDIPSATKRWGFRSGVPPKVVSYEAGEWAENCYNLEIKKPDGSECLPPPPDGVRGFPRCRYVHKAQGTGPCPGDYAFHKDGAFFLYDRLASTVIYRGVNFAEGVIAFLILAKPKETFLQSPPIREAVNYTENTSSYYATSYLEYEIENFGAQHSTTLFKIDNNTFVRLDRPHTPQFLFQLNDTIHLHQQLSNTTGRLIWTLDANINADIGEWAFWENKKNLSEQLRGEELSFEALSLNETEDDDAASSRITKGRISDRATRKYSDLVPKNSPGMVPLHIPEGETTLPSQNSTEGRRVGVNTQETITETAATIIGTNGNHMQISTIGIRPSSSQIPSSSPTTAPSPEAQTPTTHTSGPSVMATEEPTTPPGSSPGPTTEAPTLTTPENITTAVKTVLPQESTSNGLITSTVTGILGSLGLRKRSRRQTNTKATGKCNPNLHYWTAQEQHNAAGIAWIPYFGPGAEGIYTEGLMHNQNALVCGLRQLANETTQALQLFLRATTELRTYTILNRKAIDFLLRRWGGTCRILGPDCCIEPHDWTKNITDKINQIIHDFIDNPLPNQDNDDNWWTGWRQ
Test: BLI, Fab, pH 5.3

Binder	koff, s⁻¹
Fab generated from 523S (Fab, V domains shown, also called 523S Fab) VH: QVQLVQSGAELKKPGASVKVSCKASGYTFSDHYVHWVRQAPGQGLEWMGRINPNSGGTNYAQRFLGRVTMTRDASISTAYLDLSSLRSDDTAVYYCARSSSSWSGHYYYYMDVWGKGTTVTVSS VL: QSVLTQPPSVSAAPGQRVTISCSGSTSNIASNFVSWYQQLPGTAPKLLIYDNHKRPSGIPDRFSGSKSGTSATLGITGLQTGDEADYYCGTWDSSLSAGVFGGGTKVTVL	0.000103
Fab generated from 241S (Fab, V domains shown) VH: QVQLVQSGSELKKPGASVKVSCKASGYTFTSYTVNWVRQAPGQGLEWMGWINTNTGNPTYAQGFTGRFVFSSDTSVSTAYLQISDLKAEDTAMYYCARHVAYDLWSGHTVTFDHWGQGTLVTVSS VL: QSALTQPPSASGSPGQSVTISCTGTSSDVGAYNYVSWYQQHPGKAPKLIIYEVTKRPSGVPDRFSGSKSGNTASLTVSGLQAEDEADYYCSSKAGGKTYVFGTGTKVTVL	0.000433

// data source = patent US20260209316A1
